molecular target: MBR (Rattus norvegicus, UniProt P16257); construct: After male wistar rats were decapitated followed to remove the whole brain, cerebellums were removed; assay: Receptor binding: [3H]PK11195 competition binding, rat brain membrane preparation; settings: 1 nmol/L [3H]PK11195, rat brain membrane preparation; Ki from IC50 by Cheng & Prusoff
Kindly state pKi for each of the entries shown.
Numbers only, as −log10 of the molar value.

O=C(Nc1ccccc1)N1CCCCc2ccc(F)cc21; 8.26
O=C(Nc1c(Cl)cccc1Cl)N1CCCCc2ccccc21; 10.05

Q: What does the record list as pKi for O=C(Nc1ccc(O)cc1)N1CCCCc2ccccc21 ?
A: 7.49
